- assay.remarks: recombinant barcode read abundance after kanamycin selection (control-corrected) (log10(CPM+1)); higher = more efficient recombination; sequences stand for … in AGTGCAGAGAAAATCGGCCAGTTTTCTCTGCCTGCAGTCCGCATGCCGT…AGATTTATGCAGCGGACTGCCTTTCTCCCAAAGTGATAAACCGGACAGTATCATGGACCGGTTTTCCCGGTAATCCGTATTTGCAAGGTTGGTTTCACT; site = the 11-nt target
quantity.name: recombinant barcode read abundance (log10)
Numbers only.

// solved cases for recombinant barcode read abundance (log10) follow
1) CGTACCTCTTGGGTTCTAACCTGTTGCTT (site CGTACCTCTCA) : 0.125
2) TGTCAAGCTTGGGTTCTAACCTGTTGCCT (site TGTCAACCTAG) : 0.045
3) GCTTCGTCTTGGGTTCTAACCTGTTGCCT (site GCTTCGTCTAG) : 0.393
4) TACCTGTCTTGGGTTCTAACCTGTTGCTT (site TACCCGTCTAA) : 0.251
5) CGTTCCACTTGGGTTCTAACCTGTTGCCT (site CGTTCTACTAG) : 0

Here is another sequence to look at.
Incoming: # query: recombinant barcode read abundance (log10) of entry GCCCCATCTTGGGTTCTAACCTGTTGCCT (site GCCCGATCTAG)
Outgoing: 0.37

* * *

- assay.remarks: recombinant barcode read abundance after kanamycin selection (control-corrected) (log10(CPM+1)); higher = more efficient recombination; sequences stand for … in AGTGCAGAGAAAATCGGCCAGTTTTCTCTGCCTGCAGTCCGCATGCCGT…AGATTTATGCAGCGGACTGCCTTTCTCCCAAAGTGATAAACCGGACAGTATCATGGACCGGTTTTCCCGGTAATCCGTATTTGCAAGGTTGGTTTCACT; site = the 11-nt target
Exercise: for every item that follows, state its recorded recombinant barcode read abundance (log10).
Numbers only.

// solved cases for recombinant barcode read abundance (log10) follow
1. CCGTCTACTTGGGTTCTAACCTGTTGCCT (site CGGTCTACTAG) : 0.0454
2. AGTGGACCTTGGGTTCTAACCTGTTGCCC (site TCCCATACTAT) : 0.0634
3. TAGGCTGCTTGGGTTCTAACCTGTTGCCT (site TAGCCTGCTAG) : 0

Incoming: # query: recombinant barcode read abundance (log10) of entry TAGAAGGCTTGGGTTCTAACCTGTTGCGT (site TAGAAGGCTAT)
Outgoing: 1.96

* * *

- assay.remarks: recombinant barcode read abundance after kanamycin selection (control-corrected) (log10(CPM+1)); higher = more efficient recombination; sequences stand for … in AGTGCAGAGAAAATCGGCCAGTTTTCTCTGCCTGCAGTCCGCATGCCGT…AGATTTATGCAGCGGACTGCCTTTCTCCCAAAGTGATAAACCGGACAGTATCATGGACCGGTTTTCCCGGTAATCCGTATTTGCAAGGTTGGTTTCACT; site = the 11-nt target
Exercise: for every item that follows, state its recorded recombinant barcode read abundance (log10).
One number for each entry.

// solved cases for recombinant barcode read abundance (log10) follow
1) TATGTGGCTTGGGTTCTAACCTGTTGCCT (site TATGCGGCTAG) : 0.296
2) CGCGGTCCTTGGGTTCTAACCTGTTGCCT (site CGCGCTCCTAG) : 0.109
3) ATGGCACCTTGGGTTCTAACCTGTTGCCT (site AGGGCACCTTG) : 0.035

Here is another sequence to look at.
Incoming: # query: recombinant barcode read abundance (log10) of entry GACGGTCCTTGGGTTCTAACCTGTTGCGG (site GACGGTCCTCC)
Outgoing: 2.15

* * *

- assay.remarks: recombinant barcode read abundance after kanamycin selection (control-corrected) (log10(CPM+1)); higher = more efficient recombination; sequences stand for … in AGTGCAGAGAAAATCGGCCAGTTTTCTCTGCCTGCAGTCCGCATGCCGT…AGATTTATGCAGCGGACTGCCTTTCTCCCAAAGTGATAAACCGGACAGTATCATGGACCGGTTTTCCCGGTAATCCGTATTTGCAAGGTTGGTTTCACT; site = the 11-nt target
Decide using recombinant barcode read abundance (log10): a value greater than or equal to 0.2 is Criterion met, a smaller one is Criterion not met.

Answered examples (6):
1. GTGTCTCCTTGGGTTCTAACCTGTTGCCT (site GTGTCTCCTAG) : Criterion met
2. CTAGCGACTTGGGTTCTAACCTGTTGCGG (site CTAACGACTCC) : Criterion met
3. TTGGTTCCTTGGGTTCTAACCTGTTGCCT (site TTGGTCCCTAG) : Criterion not met
4. TACCGGACTTGGGTTCTAACCTGTTGCCT (site TACCCGACTAG) : Criterion not met
5. TGCTGATCTTGGGTTCTAACCTGTTGCCT (site GGCTGATCTAG) : Criterion not met
6. GAGGGCCCTTGGGTTCTAACCTGTTGCCT (site AAGGGCCCTAG) : Criterion met

Incoming: Would you say GCTAACACTTGGGTTCTAACCTGTTGCCT (site TCTAACACTAG) shows recombinant barcode read abundance (log10) at minimum 0.2?
Outgoing: Criterion not met

Incoming: Same again, this time with ATGCGAGCTTGGGTTCTAACCTGTTGCGG (site ATGCGAGCTCC)
Outgoing: Criterion met

Incoming: Same again, this time with TGTCTCCCTTGGGTTCTAACCTGTTGCTT (site TGTCTACCTTA)
Outgoing: Criterion not met

Incoming: Same again, this time with TGTGAGTCTTGGGTTCTAACCTGTTGCTT (site TGTGAGTCTAT)
Outgoing: Criterion met

Incoming: Same again, this time with GCTGAGACTTGGGTTCTAACCTGTTGCCG (site GATGAGACTCG)
Outgoing: Criterion met

Incoming: Same again, this time with CTAATATCTTGGGTTCTAACCTGTTGCTA (site CTAATAGCTTA)
Outgoing: Criterion not met

* * *

- assay.remarks: recombinant barcode read abundance after kanamycin selection (control-corrected) (log10(CPM+1)); higher = more efficient recombination; sequences stand for … in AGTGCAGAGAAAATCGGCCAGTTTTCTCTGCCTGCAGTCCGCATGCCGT…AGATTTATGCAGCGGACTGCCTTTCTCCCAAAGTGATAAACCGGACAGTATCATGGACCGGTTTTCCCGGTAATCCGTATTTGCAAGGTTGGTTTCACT; site = the 11-nt target
Decide using recombinant barcode read abundance (log10): a value greater than or equal to 0.1 is label 1, a smaller one is label 0.

Answered examples (4):
1. GGTCATACTTGGGTTCTAACCTGTTGCCT (site GGTCATGCTAG) : label 0
2. CGTCACACTTGGGTTCTAACCTGTTGCCT (site CGCCACACTAG) : label 1
3. CTCAATACTTGGGTTCTAACCTGTTGCGA (site CTCAATTCTTT) : label 0
4. AACCAGTCTTGGGTTCTAACCTGTTGCCG (site AACCAGTCTCG) : label 1

Kindly review the next sequence as well.
Incoming: Would you say GCTAGGACTTGGGTTCTAACCTGTTGCTG (site CGGTCTGCTAT) shows recombinant barcode read abundance (log10) at minimum 0.1?
Outgoing: label 1

* * *

Exercise: for every item that follows, state its recorded recombinant UMI read abundance (log10).
- assay.remarks: recombinant UMI read abundance after kanamycin selection (control-corrected) (log10(CPM+1)); higher = more efficient recombination; extreme values may be limits of the assay; sequences stand for … in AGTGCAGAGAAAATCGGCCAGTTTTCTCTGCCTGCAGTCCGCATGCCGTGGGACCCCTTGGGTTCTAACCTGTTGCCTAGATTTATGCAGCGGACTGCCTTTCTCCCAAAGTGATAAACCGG…AGGTTGGTTTCACT; site = the 11-nt donor

1. ACTGAGGCATGGACCGGTTTTCCCGGTAATCCGTATTTGAA (site ACTGAGGCTTT) : 1.73
2. GAGCTCACATGGACCGGTTTTCCCGGTAATCCGTATTTGAA (site GAGCTCACTAT) : 0.839

Each of the following entries comes with a recorded value; kindly state recombinant UMI read abundance (log10) for each.
1. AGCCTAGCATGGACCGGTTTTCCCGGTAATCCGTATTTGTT (site AACCTAGCTAA)
2. CACATGGCATGGACCGGTTTTCCCGGTAATCCGTATTTGCC (site CACATGGCTGG)
3. GATGTGTCATGGACCGGTTTTCCCGGTAATCCGTATTTGAC (site AATGTGTCTGT)
4. TCGTTAGCATGGACCGGTTTTCCCGGTAATCCGTATTTGTG (site TCGTTAGCTCA)
5. TACGGCCCATGGACCGGTTTTCCCGGTAATCCGTATTTGCG (site TACGGCCCTCG)
6. CGGTTAGCATGGACCGGTTTTCCCGGTAATCCGTATTTGTG (site CCGTTAGCTCA)
7. GAAGATTCATGGACCGGTTTTCCCGGTAATCCGTATTTGTT (site GGAGATTCTAA)
8. AGGTACACATGGACCGGTTTTCCCGGTAATCCGTATTTGCA (site AGGTACACTTG)

Outgoing:
1: 0.00661; 2: 0; 3: 1.67; 4: 0.255; 5: 0.024; 6: 0; 7: 0.379; 8: 2.46

Incoming: # query: recombinant UMI read abundance (log10) of entry GTGTATGCATGGACCGGTTTTCCCGGTAATCCGTATTTGGT (site GTGCATGCTAC)
Outgoing: 1.24

The values you see were collected from the supplement of paper PMC11208160.
